Consider the following molecules and their measured composite z-score readings.
system: XIP peptide (Xip251-270) binding; assay: small-molecule binders of XIP peptide, primary screen, biochemical, small-molecule microarray, fluorescence 635/667 nm, 0.1 µg/mL protein (AID 1182); conditions: fluorescent protein binding, 635 nm, higher = more signal, called active from +8 up or from −8 down
I'd appreciate a reply containing only the number, no unit.

The examples below pair each entry with its known result.
COC(=O)[C@@]1(Cc2ccccc2)[C@H]2c3cc(C(=O)N4CCCC4)n(Cc4cccc5ccccc45)c3C[C@H]2CN1C(=O)c1ccccc1 = 0.112
O=C1NC(=O)C2C1C=CC(C(O)c1ccccc1)N2Nc1ccc(Cl)cc1Cl (stereo not drawn) = -0.0839
O=C1O[C@H](c2ccccc2)[C@H](c2ccccc2)N2[C@H]1[C@@H](C(=O)N1CCN(c3ncccn3)CC1)[C@]1(C(=O)Nc3ccc(C#CC4=CCCCC4)cc31)[C@H]2c1ccc(O)cc1 = 0.28
COCCCN1C(=O)[C@@]2(Cc3ccccc31)c1ccccc1C(=O)N(Cc1ccccc1C(F)(F)F)[C@H]2c1ccc(CO)cc1 = -0.219
COc1ccc([Si](C)(C)[C@H]2[C@H](CCO)O[C@@]3(C(=O)N(C)c4c(Br)cc(C)cc43)[C@@H]2C)cc1 = 0.307

Recorded composite z-score (molecule `COC(=O)[C@@]1(Cc2ccc(F)cc2)[C@H]2c3cc(C(=O)N(C)C)n(CC4CC4)c3C[C@H]2CN1C(=O)c1ccccc1` ): 0.308

Documented composite z-score of CN1C(=O)C2C=CC(C(O)c3cc(C(F)(F)F)cc(C(F)(F)F)c3)N(N3CCCCC3)C2C1=O (stereo not drawn) : 0.11

molecule CCCCN1CC=CC23O[C@@H]4C=CCOC(=O)[C@@H]4[C@H]2C(=O)N(CCCCCO)[C@@H]3C1=O (stereo partly drawn) , composite z-score observed: -0.338
